- target.system: Carbonic anhydrase 2 (Homo sapiens, UniProt P00918)
measurement.name: Ki (nM)
Reply with just the number (in nM).

Below: 3 compounds and their reported Ki.
[[record]]
compound = "NS(=O)(=O)c1ccc(N/C(S)=N/C(C(=O)O)C(O)c2ccccc2)cc1 (stereo not given)"
experimental_value = 2

[[record]]
compound = "NS(=O)(=O)c1ccc(NC(=S)N2CCC[C@H]2C(=O)NCC(=O)NCC(=O)O)cc1"
experimental_value = 3

[[record]]
compound = "NS(=O)(=O)c1ccc(N/C(S)=N/CCC(=O)NC(Cc2c[nH]cn2)C(=O)O)cc1 (stereo not given)"
experimental_value = 3


// fetch Carbonic anhydrase 2 (Homo sapiens, UniProt P00918) Ki for NC(=O)CCC(NC(=S)Nc1ccc(S(N)(=O)=O)cc1)C(=O)O (stereo not given)
9

# value lookup — system Carbonic anhydrase 2 (Homo sapiens, UniProt P00918), readout Ki, item NS(=O)(=O)c1ccc(N/C(S)=N\CCc2c[nH]cn2)cc1
33
